Tested target: human V2 receptor (Homo sapiens)
Construct: Galpha16 (possible fusion partner; the text says either independent or a fusion gene)
Sequence (P30518 whole entry, the tested form may be a part): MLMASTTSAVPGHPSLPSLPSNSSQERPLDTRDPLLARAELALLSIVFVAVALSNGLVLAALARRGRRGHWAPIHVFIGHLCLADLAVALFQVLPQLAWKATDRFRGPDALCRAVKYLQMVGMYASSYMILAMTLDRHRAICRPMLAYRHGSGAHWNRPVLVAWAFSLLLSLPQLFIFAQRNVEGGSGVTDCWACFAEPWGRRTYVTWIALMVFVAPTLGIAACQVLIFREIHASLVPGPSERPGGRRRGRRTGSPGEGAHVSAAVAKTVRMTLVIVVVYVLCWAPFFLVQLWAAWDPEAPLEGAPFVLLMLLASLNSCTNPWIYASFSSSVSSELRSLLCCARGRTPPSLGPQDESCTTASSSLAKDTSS
Assay method text: Cellular in vitro assay for vasopressin receptor activity (aequorin luminescence), hV2
Condition parameters: CHO cell line transfected with the human V2 receptor and Gα16, agonist [Arg8]-vasopressin
Quantity kind: IC50 (nM)

Solved cases below.
Entry under test: COc1cccc(C(NC(=O)Cn2nc(-c3ccc(Cl)cc3)n(C[C@H](O)C(F)(F)F)c2=O)c2cccc(C(F)(F)F)c2)n1 (single isomer, unassigned) [Example 19] . Its IC50 was 7.1

Lab book: IC50 of Cc1noc([C@](C)(NC(=O)Cn2nc(-c3ccc(Cl)cc3)n(C[C@H](O)C(F)(F)F)c2=O)c2cccc(C(F)(F)F)c2)n1 noted as 3.2

[P] COc1cccc(C(NC(=O)Cn2nc(-c3ccc(Cl)cc3)n(C[C@H](O)C(F)(F)F)c2=O)c2cccc(C(F)(F)F)c2)n1 (single isomer, unassigned) [Example 18]
[Q] C[C@@](NC(=O)Cn1nc(-c2ccc(Cl)cc2)n(C[C@H](O)C(F)(F)F)c1=O)(c1cccc(C(F)(F)F)c1)c1nnn[nH]1
Exercise: Please tell me which of the two, P or Q , has the higher reported IC50 value. Please respond with the label that marks your chosen entry.
Key: P
(P: 91 nM, Q: 3.3 nM)

====

Tested target: human V1a receptor (Homo sapiens, UniProt P37288)
Sequence (P37288 whole entry): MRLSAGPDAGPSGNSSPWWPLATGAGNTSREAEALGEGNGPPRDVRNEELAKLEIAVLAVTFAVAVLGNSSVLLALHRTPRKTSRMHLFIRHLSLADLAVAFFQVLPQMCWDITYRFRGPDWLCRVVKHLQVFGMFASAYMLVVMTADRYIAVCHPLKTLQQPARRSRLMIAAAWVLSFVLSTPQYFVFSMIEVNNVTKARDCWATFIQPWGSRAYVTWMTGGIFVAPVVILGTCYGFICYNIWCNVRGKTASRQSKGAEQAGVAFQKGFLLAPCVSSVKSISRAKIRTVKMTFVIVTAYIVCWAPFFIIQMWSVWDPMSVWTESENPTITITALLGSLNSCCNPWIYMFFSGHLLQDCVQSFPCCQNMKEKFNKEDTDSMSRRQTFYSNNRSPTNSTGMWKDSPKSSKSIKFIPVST
Assay method text: Cellular in vitro assay for vasopressin receptor activity (aequorin luminescence), hV1a
Condition parameters: CHO cell line transfected with the human V1a receptor, agonist [Arg8]-vasopressin
Quantity kind: IC50 (nM)

The recorded IC50 for C[C@@](NC(=O)Cn1nc(-c2ccc(Cl)cc2)n(C[C@H](O)C(F)(F)F)c1=O)(c1cccc(C(F)(F)F)c1)c1nnn[nH]1 is 8.3

[a] Cc1noc([C@](C)(NC(=O)Cn2nc(-c3ccc(Cl)cc3)n(C[C@H](O)C(F)(F)F)c2=O)c2cccc(C(F)(F)F)c2)n1
[b] COc1cccc(C(NC(=O)Cn2nc(-c3ccc(Cl)cc3)n(C[C@H](O)C(F)(F)F)c2=O)c2cccc(C(F)(F)F)c2)n1 (single isomer, unassigned) [Example 18]
Exercise: // pick min by IC50: a , b Response format: the label of the selected entry.
Key: a
(a: 6.5 nM, b: 32 nM)
